Test system: HBV in primary human hepatocytes (PHH)
Test method notes: Cryopreserved primary human hepatocytes (PHH) HBV infection assay
Assay type: cell-based
Reported conditions: Hepatitis B virus, Hepatocyte, 216 h, HBV-infected cryopreserved PHH, 9 days post-compound treatment, extracellular HBV DNA by quantitative PCR; read-out: HBV DNA IC50
Assay endpoint: pIC50
One number for each entry, as −log10 of the molar value.

If you can, please state the reported pIC50 value of O=C(O)c1cccc(OCCOc2ccc(-c3cc(=O)c4cccc(Cl)c4o3)cc2)c1 [Example 3] .
4.45
